Target: LasR (Pseudomonas aeruginosa PA14?) (UniProt A0A0H2Z901)
Sequence: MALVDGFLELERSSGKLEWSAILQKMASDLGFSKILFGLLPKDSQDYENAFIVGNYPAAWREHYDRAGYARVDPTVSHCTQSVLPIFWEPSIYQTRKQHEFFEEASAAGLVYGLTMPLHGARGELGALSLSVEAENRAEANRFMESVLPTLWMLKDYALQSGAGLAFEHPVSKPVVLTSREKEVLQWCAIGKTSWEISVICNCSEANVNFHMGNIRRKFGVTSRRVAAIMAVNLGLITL
Test: EMSA
Conditions: LasR EMSA: 20 mM Tris-HCl pH 7.5, 50 mM KCl, 1 mM EDTA, 1 mM DTT, 100 ug/ml BSA, 10% glycerol, room temp 20 min, 1 pM each specific and nonspecific probe
experimental_endpoint: binding

>>> value("GTCCGGATCCCGAGGCTCTCCAGAGGAATCCACTGTTGTCTGCCTTATTTTTTATAAATTGTTAACTACCTGTTTTGGTAGGGTTTTCCAAATGGCCATCAATGTCGTTATGATGGCTATAGCCAAGCCGTAAAGGGCATGGACGCAGACGCCTGACGTTTGGCTGAAAATCTTTCATTGGAATTCGGAC (double strand) [lrs2 promoter]")
"binds"
>>> value("GTCCGAATTCCTTCTGATGCCGGCGCGGGCGCCCGGCCGGTATGGCCGGCAAGCCCGTCGACGGCTGTCCAGCTACCAGATCCGGTAGCCCTGCCAGATTTCGCAGGCGACCAGATCTGGCAGGTTGTTGGGCTCCCGGTGCCATGCAACCTATTACGCCTCTCGCCCCCCACCCGTTCGCGCAGGATCCGGAC (double strand) [PA14_37745 promoter]")
"binds"

Values were extracted from paper PMC3460626.
